Origin of values: paper PMC12153055

system: A2780 human ovarian carcinoma cells; assay: MTT cytotoxicity assay, A2780 cells; format: cell-based; settings: selectivity index; values equal IC50 HEK293T / IC50 A2780
Binary classification by SI A2780 HEK293T, with 4 as an inclusive lower bound for met; all other cases are not met.

- compound: "COc1cc(/C=C/c2cc(/C=C/c3ccc(O)c(OC)c3)n(-c3ccccn3)n2)ccc1O"
  target under test: "A2780 human ovarian carcinoma cells"
  assigned class: "not met"

Exercise: State whether the measured SI A2780 HEK293T reaches 4, counting equality as reaching it, for `Oc1ccc(/C=C/c2cc(/C=C/c3ccc(O)cc3)n(-c3ccccn3)n2)cc1`
Key: not met

Exercise: Check this compound for SI A2780 HEK293T at or above 4: COc1cc(/C=C/c2cc(/C=C/c3ccc(O)c(OC)c3)n(-c3ccccn3)n2)ccc1O.Cc1ccc(C(C)C)cc1.[Cl-].[Cl][Ru+] [[1]Cl, [Ru(p-cym)(HZPcurc)Cl]Cl]
Key: met

Exercise: Determine whether this compound has SI A2780 HEK293T no lower than 4: Cc1ccc(C(C)C)cc1.Oc1ccc(/C=C/c2cc(/C=C/c3ccc(O)cc3)n(-c3ccccn3)n2)cc1.[Cl-].[Cl][Ru+] [[3]Cl, [Ru(p-cym)(HZPbdcurc)Cl]Cl]
Key: met

Exercise: Item Cc1ccc(C(C)C)cc1.Oc1ccc(/C=C/c2cc(/C=C/c3ccc(O)cc3)n(-c3ccccn3)n2)cc1.[Cl-].[Cl][Os+] [[4]Cl, [Os(p-cym)(HZPbdcurc)Cl]Cl] with SI A2780 HEK293T of 4 or above?
Key: met

---

# IC50 listing for each entry below
target: 20S proteasome trypsin-like activity (Homo sapiens, UniProt Q99436); experiment: Isolated 20S proteasome, trypsin-like activity (Z-Leu-Ser-Thr-Arg-AMC); settings: 0–100 μM, 1 h, 37 °C, pH 8.0

- molecule: "Cc1ccc(C(C)C)cc1.Oc1ccc(/C=C/c2cc(/C=C/c3ccc(O)cc3)n(-c3ccccn3)n2)cc1.[Cl-].[Cl][Ru+] [[3]Cl, [Ru(p-cym)(HZPbdcurc)Cl]Cl]"
  IC50: "> 100 µM"
- molecule: "Oc1ccc(/C=C/c2cc(/C=C/c3ccc(O)cc3)n(-c3ccccn3)n2)cc1"
  IC50: "> 100 µM"

Attention now turns to another entry.
Exercise: GET /values?readout=IC50&item= `COc1cc(/C=C/c2cc(/C=C/c3ccc(O)c(OC)c3)n(-c3ccccn3)n2)ccc1O`
Key: > 100 µM
